What pest or weed control at 2000 µg/mL was measured for each of the following?
- System: corn earworm (Helicoverpa zea)
- Test Method Notes: Insecticidal test on treated lepidopteran diet, corn earworm
- Format: in vivo
- Condition Parameters: 120 h; second-instar larvae on treated diet, 8 wells; dose of 50 mg/cm^2 [sic] (2000 ppm, 50 μL); dead insects counted 5 days after treatment; read-out: AVG HELIZE 50 (percent control, corn ear worm)
One number for each entry, in %.

Below is a list of compounds. For each, state its recorded pest or weed control at 2000 µg/mL.
1. FC(F)(F)COc1nc(N/N=C/c2cccc(Br)c2)nc(Nc2ccc(OC(F)(F)F)cc2)n1 [Compound 29]
2. FC(F)(F)Oc1ccc(Nc2nc(N/N=C/c3ccccc3C(F)(F)F)nc(N3CCOCC3)n2)cc1 [Compound 41]
3. Fc1ccccc1/C=N/Nc1nc(Nc2ccc(OC(F)(F)F)cc2)nc(OCC(F)(F)F)n1 [Compound 31]
4. O=C1CN(c2nc(N/N=C/c3cccc(C(F)(F)F)c3)nc(Nc3ccc(OC(F)(F)F)cc3)n2)CCN1 [Compound 7]
5. Fc1cc(/C=N/Nc2nc(Nc3ccc(OC(F)(F)F)cc3)nc(N3CCOCC3)n2)ccc1Cl [Compound 42]
6. CCOc1nc(N/N=C/c2cccc(C(F)(F)F)c2)nc(Nc2ccc(OC(F)(F)F)cc2)n1 [Compound 10]
7. CCOC(=O)CNc1nc(N/N=C/c2ccc(OC(F)(F)F)cc2)nc(Nc2ccc(OC(F)(F)F)cc2)n1 [Compound 26]

[100, 0, 100, 100, 100, 0, 100]
